measured-on: human matriptase (Homo sapiens, UniProt Q9Y5Y6)
test-method-notes: Assay for inhibition of matriptase (fluorogenic AMC substrate)
Type: biochemical
measurement-conditions: residual matriptase velocity with test compound, substrate Boc-Gln-Ala-Arg-AMC; method gives 10 μM for initial screening; lower = more inhibition
Text: The following describes an assay for matriptase as a representative serine protease and is based upon reported methods. […] Enzyme activities were monitored by measuring the release of fluorescence from AMC-coupled peptides (excitation, 360 nm; emission, 441 nm) in a FLX-800 TBE microplate reader (Bio-Tek Instruments, Winooski, Vt., USA). […] Ki's can be calculated from the velocity using nonlinear regression analysis. […]
Rule: rule met for Velocity (FU/min) not less than 2000 FU/min, rule not met for anything less.

C[C@@H]1CN[C@@H](C2CC2)C(=O)N(C)[C@H](C)C(=O)N[C@H](Cc2ccc(C(=N)N)cc2)C(=O)NCCCc2ccc(F)cc2O1: rule not met
C[C@@H]1C(=O)N[C@H](Cc2ccc(C(=N)N)cc2)C(=O)NC/C=C/c2ccccc2OCCN[C@@H](C2CC2)C(=O)N1C: rule not met
C[C@@H]1CN[C@@H](C2CC2)C(=O)N(C)[C@H](C)C(=O)N[C@H](Cc2ccc(C(=N)N)cc2)C(=O)NCCCc2ccccc2O1: rule not met

Hi team, for C[C@@H]1C(=O)N[C@H](Cc2ccc(C(=N)N)cc2)C(=O)NC/C=C/c2cccc(c2)OCCN[C@@H](C2CC2)C(=O)N1C , is the recorded Velocity (FU/min) at or above 2000 FU/min?
rule met

Also C[C@@H]1C(=O)N[C@H](Cc2ccncc2)C(=O)NCCCc2ccc(F)cc2OCCN[C@@H](C2CC2)C(=O)N1C , if possible.
rule met

Also C[C@@H]1C(=O)N[C@H](Cc2ccc(C(=N)N)cc2)C(=O)NCCc2ccccc2CCCCN[C@@H](C2CC2)C(=O)N1C , if possible.
rule met

====

measured-on: human matriptase (Homo sapiens)
test-method-notes: Assay for inhibition of matriptase (fluorogenic AMC substrate)
Type: biochemical
measurement-conditions: residual matriptase velocity with test compound, substrate Boc-Gln-Ala-Arg-AMC; method gives 10 μM for initial screening; lower = more inhibition
Rule: class 1 for Velocity (FU/min) not less than 2000 FU/min, class 0 for anything less.

The examples below pair each entry with its known result.
C[C@@H]1C(=O)N[C@H](Cc2ccc(C(N)=O)cc2)C(=O)NCCCc2ccc(C(=N)N)cc2OCCN[C@@H](C2CC2)C(=O)N1C [Compound 499]: class 0
C[C@@H]1C(=O)N[C@H](Cc2ccc(C(=N)N)cc2)C(=O)NCCCC2CCCCC2OCCN[C@@H](C2CC2)C(=O)N1C (stereo partly drawn) [Compound 480]: class 0
C[C@H]1C(=O)N[C@H](Cc2ccc(C(=N)N)cc2)C(=O)NCCCc2ccc(F)cc2OCCN[C@@H](C2CC2)C(=O)N1C [Compound 455]: class 1

Hi team, for C[C@@H]1C(=O)N[C@@H](Cc2ccc(C(=N)N)cc2)C(=O)NCCCc2ccc(F)cc2OCCN[C@@H](C2CC2)C(=O)N1C [Compound 454] , is the recorded Velocity (FU/min) at or above 2000 FU/min?
class 1

Also C[C@@H]1C(=O)N[C@H](CCCCN)C(=O)NCCCc2ccc(F)cc2OCCN[C@@H](C2CC2)C(=O)N1C [Compound 485] , if possible.
class 1

Also C[C@@H]1C(=O)N[C@H](Cc2ccc(C(=N)N)cc2)C(=O)NCCc2cccc(c2)CN[C@@H](C2CC2)C(=O)N1C [Compound 473] , if possible.
class 1

====

measured-on: human matriptase (Homo sapiens, UniProt Q9Y5Y6)
Sequence (Q9Y5Y6 1-855): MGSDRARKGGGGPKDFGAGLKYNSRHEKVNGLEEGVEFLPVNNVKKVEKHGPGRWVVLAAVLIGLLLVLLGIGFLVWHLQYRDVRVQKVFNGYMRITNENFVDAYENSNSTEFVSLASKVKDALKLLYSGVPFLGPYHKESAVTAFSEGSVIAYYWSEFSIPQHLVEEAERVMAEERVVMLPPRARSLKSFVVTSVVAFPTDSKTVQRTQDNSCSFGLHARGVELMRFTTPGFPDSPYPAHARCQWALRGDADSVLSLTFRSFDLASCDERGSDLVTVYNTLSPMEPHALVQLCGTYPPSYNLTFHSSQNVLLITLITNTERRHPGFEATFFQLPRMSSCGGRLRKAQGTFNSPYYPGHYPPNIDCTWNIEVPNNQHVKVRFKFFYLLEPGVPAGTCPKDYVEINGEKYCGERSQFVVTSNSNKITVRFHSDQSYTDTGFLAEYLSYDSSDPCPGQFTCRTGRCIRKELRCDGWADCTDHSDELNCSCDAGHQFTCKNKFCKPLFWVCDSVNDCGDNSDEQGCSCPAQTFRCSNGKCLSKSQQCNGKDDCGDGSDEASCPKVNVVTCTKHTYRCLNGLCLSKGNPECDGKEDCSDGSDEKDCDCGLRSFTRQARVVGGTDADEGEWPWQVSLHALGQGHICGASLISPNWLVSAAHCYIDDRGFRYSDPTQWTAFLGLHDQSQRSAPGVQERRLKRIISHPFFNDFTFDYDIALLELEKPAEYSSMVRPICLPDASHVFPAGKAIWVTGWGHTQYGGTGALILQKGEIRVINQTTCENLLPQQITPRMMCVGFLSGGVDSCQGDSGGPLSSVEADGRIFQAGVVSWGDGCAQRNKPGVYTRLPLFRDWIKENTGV
test-method-notes: Assay for inhibition of matriptase (fluorogenic AMC substrate)
Format: biochemical
measurement-conditions: calculated from velocity by nonlinear regression, competitive inhibition model (GraphPad Prism 5)
test-readout: Ki (nM)
Output spec: scalar in nM, unitless text.

C[C@@H]1C(=O)N[C@H](Cc2ccc(C(=N)N)cc2)C(=O)NCCCc2ccc(F)cc2OCCN[C@@H](C2CC2)C(=O)N1C [Compound 451]: 1460

Kindly review the next compound as well.
Sample C[C@@H]1CN[C@@H](C2CC2)C(=O)N(C)[C@H](C)C(=O)N[C@H](Cc2ccc(C(=N)N)cc2)C(=O)NCCCc2ccccc2O1 [Compound 459] — what was its Ki?
245

====

measured-on: human matriptase (Homo sapiens)
Sequence (Q9Y5Y6 1-855): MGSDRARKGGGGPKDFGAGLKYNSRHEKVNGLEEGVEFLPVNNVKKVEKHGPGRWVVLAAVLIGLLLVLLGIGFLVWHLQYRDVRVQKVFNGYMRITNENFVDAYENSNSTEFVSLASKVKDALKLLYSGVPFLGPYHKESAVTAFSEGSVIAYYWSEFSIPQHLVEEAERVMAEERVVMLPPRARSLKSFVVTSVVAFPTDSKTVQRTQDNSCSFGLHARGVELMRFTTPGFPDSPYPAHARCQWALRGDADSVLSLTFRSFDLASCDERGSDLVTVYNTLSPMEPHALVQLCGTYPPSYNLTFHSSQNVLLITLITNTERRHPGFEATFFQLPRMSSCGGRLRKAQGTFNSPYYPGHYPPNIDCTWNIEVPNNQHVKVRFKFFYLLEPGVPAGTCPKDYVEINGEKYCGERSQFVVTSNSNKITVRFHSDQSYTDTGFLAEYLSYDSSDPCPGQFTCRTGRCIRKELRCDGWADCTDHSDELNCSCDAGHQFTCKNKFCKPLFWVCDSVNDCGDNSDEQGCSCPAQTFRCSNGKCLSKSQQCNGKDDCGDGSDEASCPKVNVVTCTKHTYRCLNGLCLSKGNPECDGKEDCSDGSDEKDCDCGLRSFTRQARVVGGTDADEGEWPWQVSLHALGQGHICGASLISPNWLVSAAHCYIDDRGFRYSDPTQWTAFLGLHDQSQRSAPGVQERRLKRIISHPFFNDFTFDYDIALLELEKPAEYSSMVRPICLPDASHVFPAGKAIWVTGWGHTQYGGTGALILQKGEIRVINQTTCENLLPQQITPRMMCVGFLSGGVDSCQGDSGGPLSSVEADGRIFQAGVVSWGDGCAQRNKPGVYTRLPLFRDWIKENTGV
test-method-notes: Assay for inhibition of matriptase (fluorogenic AMC substrate)
Type: biochemical
measurement-conditions: residual matriptase velocity with test compound, substrate Boc-Gln-Ala-Arg-AMC; method gives 10 μM for initial screening; lower = more inhibition
Text: The following describes an assay for matriptase as a representative serine protease and is based upon reported methods. […] Enzyme activities were monitored by measuring the release of fluorescence from AMC-coupled peptides (excitation, 360 nm; emission, 441 nm) in a FLX-800 TBE microplate reader (Bio-Tek Instruments, Winooski, Vt., USA). […] Ki's can be calculated from the velocity using nonlinear regression analysis. […]
test-readout: Velocity (FU/min)
Output spec: scalar in FU/min, unitless text.

Sample C[C@@H]1CN[C@@H](C2CC2)C(=O)N(C)[C@H](C)C(=O)N[C@H](Cc2ccc(C(N)=O)cc2)C(=O)NCCCc2ccccc2O1 — what was its Velocity (FU/min)?
580

Also C[C@@H]1C(=O)N[C@H](CCCNC(N)=O)C(=O)NCCCc2ccc(F)cc2OCCN[C@@H](C2CC2)C(=O)N1C , if possible.
2440

Also C[C@@H]1C(=O)N[C@H](Cc2ccc(C(=N)N)cc2)C(=O)NCCOc2cccc(c2)OCCN[C@@H](C2CC2)C(=O)N1C , if possible.
2190

Also C[C@@H]1C(=O)N[C@H](Cc2ccc(C(=N)N)cc2)C(=O)NCCc2ccccc2OCCN[C@@H](C2CC2)C(=O)N1C , if possible.
1875

Also C[C@@H]1C(=O)N[C@H](Cc2cccnc2)C(=O)NCCCc2ccc(F)cc2OCCN[C@@H](C2CC2)C(=O)N1C , if possible.
2125

Also C[C@@H]1CCc2ccc(F)cc2OCCN[C@@H](C2CC2)C(=O)N(C)[C@H](C)C(=O)N[C@H](Cc2ccc(C(=N)N)cc2)C(=O)N1 , if possible.
1750
